Data provenance is PubChem BioAssay (NCI).

Listed here: items and their measured GI50.
- Tested on: NCI-H226 lung
- TEST DETAILS: NCI tumour cell line growth inhibition, 48 h

- O=C(/C=C/c1ccccn1)c1ccccc1O: 2.18 µM
- CCOC(=O)c1c[nH]c2c(OCc3ccccc3)c3ccccc3c(O)c2c1=O: 4.28 µM
- CCCn1cc(C2=C(c3cn(C)c4ccccc34)C(=O)NC2=O)c2ccccc21: 2.69 µM
- O=C(CCc1nnc(-c2c(Cl)cccc2Cl)o1)c1nc2ccccc2[nH]1: 6.66 µM
- CCOC(=O)C1=C(N)Oc2c(sc3c(C)cccc23)C1c1ccc(Cl)cc1 (stereo unspecified): 5.02 µM

Below: the item to evaluate.
Req: Please report the recorded GI50 for `C=C1C(=O)O[C@H]2[C@H]1CC/C(COC(=O)/C=C\C(=O)NCc1ccc(Cn3c(=O)sn(-c4ccc(OC)cc4)c3=O)cc1)=C\CC[C@@]1(C)O[C@@H]21` .
Resp: 1.28 µM
